molecular target: Mitogen-activated protein kinase kinase kinase 12 (Homo sapiens); experiment: Binding affinity to DLK (unknown origin) assessed as inhibition constant
pKi: −log10 of the molar value.
Readout Name: pKi

[[record]]
smiles_representation = "CC(=O)N1CCC(c2cc(Nc3cc(C#N)ccn3)nc(N3CCC(F)(F)C3)c2)CC1"
number = 7.60

